Tested on: biotinylated tubulin
Assay: Colchicine competitive-binding assay
Conditions: at 10 μM concentration; 3H-colchicine; right column pair of Table 7
Method: The colchicine competitive-binding assay was done by using the Colchicine Site competitive Assay Kit (Cytoskeleton, Inc.), streptavidin-coated yttrium SPA beads(GE Healthcare, Inc.), and ^3H-colchicine(PerkinElmer, Inc.). Briefly, the binding mixture includes 1 μL^3H-labeled ligand (specific activity […]), and 1 μg biotinylated tubulin and 88 μg SPA beads in 200 μL assay buffer. The test compound and ^3H-labeled ligand were added before tubulin. […]
Below, each entry is listed with its recorded Inhibition rate (%) (colchicine competitive-binding).
observable: Inhibition rate (%) (colchicine competitive-binding)

{"entry.smiles": "Cc1ccc(CCC(=O)Nc2ncc(-c3ccccc3)cn2)o1", "meas.value": 94.7}
{"entry.smiles": "O=C(CCc1ccccc1)Nc1ncc(-c2ccc(F)cc2)cn1", "meas.value": 78.3}
{"entry.smiles": "Cc1ccc(CCC(=O)Nc2ncc(-c3ccc(N(C)C)cc3)cc2C)o1", "meas.value": 97.5}
